Assay: Half life in mouse liver microsomes by in vitro metabolic stability assay
Assay type: ADME, Microsome
Details: liver microsomes
Output met for half-life not less than 20 min; output not met otherwise.

Could you verify whether the entry CC(N)C1(c2cccs2)CCCCC1 (stereo unspecified) shows half-life of no less than 20 min?
met

Given CC(N)C1(c2ccc(-c3ccccc3)cc2)CCCCC1 (stereo unspecified) , state whether its half-life is at least 20 min.
met

Could you tell me if the measured half-life of CC(N)C1(c2ccc3ccccc3c2)CCCCC1 (racemic) reaches 20 min or more?
not met

For this compound, is measured half-life 20 min or higher? CCC(N)C1(c2ccc(Cl)c(Cl)c2)CCCCC1 (racemic)
met

API: above_or_equal(metric=half-life, cutoff=20 min) for item CNC(CC(C)C)C1(c2ccc(Cl)c(Cl)c2)CCCCC1 (racemic)
not met

Is half-life at least 20 min? Consider CC(N(C)C)C1(c2ccc3ccccc3c2)CCCCC1 (racemic)
met

====

Biological target: Sodium-dependent noradrenaline transporter (Homo sapiens, UniProt P23975)
Sequence (P23975 whole entry): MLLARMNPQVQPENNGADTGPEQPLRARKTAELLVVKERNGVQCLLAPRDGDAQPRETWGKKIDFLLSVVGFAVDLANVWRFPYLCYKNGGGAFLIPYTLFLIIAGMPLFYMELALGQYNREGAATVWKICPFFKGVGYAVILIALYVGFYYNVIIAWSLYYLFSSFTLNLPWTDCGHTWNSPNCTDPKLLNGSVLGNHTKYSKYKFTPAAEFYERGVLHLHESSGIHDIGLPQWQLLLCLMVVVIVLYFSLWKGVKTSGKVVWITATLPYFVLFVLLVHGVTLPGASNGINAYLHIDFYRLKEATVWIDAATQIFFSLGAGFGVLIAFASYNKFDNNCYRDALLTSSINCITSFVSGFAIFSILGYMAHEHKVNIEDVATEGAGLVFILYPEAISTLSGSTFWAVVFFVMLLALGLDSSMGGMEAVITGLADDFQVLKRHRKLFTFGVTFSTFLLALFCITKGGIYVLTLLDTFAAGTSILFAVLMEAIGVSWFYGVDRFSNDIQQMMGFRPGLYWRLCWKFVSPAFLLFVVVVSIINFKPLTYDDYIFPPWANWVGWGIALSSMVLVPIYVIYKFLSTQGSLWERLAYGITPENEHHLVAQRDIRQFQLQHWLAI
Measured quantity: pIC50
Please report pIC50 as the negative decimal logarithm of the molar concentration, giving only the number.

response.value for CC(N)C1(c2ccc(OC(C)(C)C)cc2)CCCCC1 (stereo unspecified) (field: pIC50) = 5.30

====

Assay: Half life in human liver microsomes by in vitro metabolic stability assay
Type: ADME, Microsome
Settings: liver microsomes
Recorded half-life determines the group label, using LOW (below 0.6 h), MID (0.6 h to below 2 h), HIGH (2 h or more)

Assign a bin to CNC(CC(C)C)C1(c2ccc(Cl)c(Cl)c2)CCCCC1 (racemic)
LOW

Classify this molecule: CC(N)C1(c2ccc(OC(F)(F)F)cc2)CCCCC1 (stereo not drawn)
HIGH

Category of CC(C)CC(N)C1(c2ccc(Cl)c(Cl)c2)CCCCC1 (racemic) :
MID

Category of CC(N(C)C)C1(c2ccc3ccccc3c2)CCCCC1 (racemic) , please.
LOW

Which of the defined bands does the recorded half-life of CNC(C)C1(c2ccc3ccccc3c2)CCCCC1 (stereo in doubt; 29) sit within?
MID

Which class holds CC(N)C1(c2cccc3ccccc23)CCCCC1 (stereo not drawn) ?
HIGH

Class label required: CC(N)C1(c2cccs2)CCCCC1 (stereo not drawn)
HIGH

Which bin, given its half-life, does CC(N)C1(c2ccc(-c3ccccc3)cc2)CCCCC1 (stereo not drawn) occupy?
HIGH

Each molecule maps to one class by half-life. Which class for CC(C)CC(N(C)C)C1(c2ccc(Cl)c(Cl)c2)CCCCC1 (racemic) ?
LOW

State the band of CC(N)C1(c2ccc3ccccc3c2)CCCCC1 (racemic)
HIGH

Pick a category. Item: CCC(N)C1(c2ccc(Cl)c(Cl)c2)CCCCC1 (racemic)
MID

For CC(N(C)C)C1(c2ccc(Cl)c(Cl)c2)CCCCC1 (racemic) , which half-life bin applies?
LOW

Record CC(N)C1(c2ccc(Cl)c(Cl)c2)CCCCC1 (racemic) — which class?
HIGH

====

Test: Half life in mouse liver microsomes by in vitro metabolic stability assay
Type: ADME, Microsome
Conditions: liver microsomes
Please respond with 1.0 when measured half-life is strictly beneath 60 min, and with 0.0 in all other cases.

Field: below-cutoff. Rule: recorded half-life strictly less than 60 min. Subject: CC(N(C)C)C1(c2ccc(Cl)c(Cl)c2)CCCCC1 (racemic)
1.0

Please check: half-life for CC(N)C1(c2ccc(OC(F)(F)F)cc2)CCCCC1 (stereo unspecified) , strictly under 60 min or not?
0.0

Field: below-cutoff. Rule: recorded half-life strictly less than 60 min. Subject: CC(N)C1(c2cccc3ccccc23)CCCCC1 (stereo unspecified)
0.0

# check: half-life < 60 min for CC(C)CC(N(C)C)C1(c2ccc(Cl)c(Cl)c2)CCCCC1 (racemic)
0.0

Here's an entry: CNC(C)C1(c2ccc3ccccc3c2)CCCCC1 (stereo in doubt; 29) . Is its half-life below 60 min?
1.0
